- assayNotes: Stability studies of DUV in human plasma samples
- Assay type: in vitro ADME
- conditionLabel: human, human plasma (spiked QC samples)
readoutLabel: recovery

Any idea what its recovery is? The molecule is "C[C@H](Nc1ncnc2nc[nH]c12)c1cc2cccc(Cl)c2c(=O)n1-c1ccccc1"
95.9 to 103%

###

- assayNotes: Pharmacokinetic study in rats after single oral dose of DUV
- Type: in vivo, Wistar rat
- conditionLabel: male, Wistar, rat, plasma, po, 25 mg/kg
readoutLabel: half-life (min)
Supply the numeric figure in min, leaving out any unit text.

Any idea what its half-life is? The compound is C[C@H](Nc1ncnc2nc[nH]c12)c1cc2cccc(Cl)c2c(=O)n1-c1ccccc1 [DUV]
43.2
